assay type: in vivo, human (healthy subjects); conditions: human, plasma, oral, 30 mg
property: concentration at 24 h (ng/mL)
One number for each entry, in ng/mL.

The reported concentration at 24 h of the compound CC[C@@H]1CN(C(=O)NCC(F)(F)F)C[C@@H]1c1cnc2cnc3[nH]ccc3n12 was 5.17

###

type: in vivo, human (healthy subjects); conditions: human, plasma, oral, 30 mg
property: concentration at 24 h
# output: number + unit

The reported concentration at 24 h of the compound CC[C@@H]1CN(C(=O)NCC(F)(F)F)C[C@@H]1c1cnc2cnc3[nH]ccc3n12 [upadacitinib] was 4.3 ng/mL

###

type: in vivo, human (healthy subjects); settings: human, plasma, oral, 30 mg
property: AUC (ng·h/mL)
Numbers only, in ng·h/mL.

The reported AUC of the molecule CC[C@@H]1CN(C(=O)NCC(F)(F)F)C[C@@H]1c1cnc2cnc3[nH]ccc3n12 was 585

###

assay type: in vivo, human (healthy subjects); details: human, plasma, po, 5 mg
property: Cmax (ng/mL)
Give bare numbers, in ng/mL.

The reported Cmax of the compound CC(C)c1nc(N(C)S(C)(=O)=O)nc(-c2ccc(F)cc2)c1/C=C/[C@@H](O)C[C@@H](O)CC(=O)O [rosuvastatin] was 1.91

###

format: in vivo, human (healthy subjects); conditions: human, plasma, oral, 5 mg
property: AUC(0-t) (ng·h/mL)
One number for each entry, in ng·h/mL.

The reported AUC(0-t) of the molecule CC(C)c1nc(N(C)S(C)(=O)=O)nc(-c2ccc(F)cc2)c1/C=C/[C@@H](O)C[C@@H](O)CC(=O)O was 17.5

###

assay type: in vivo, human (healthy subjects); conditions: human, plasma, oral, 5 mg
property: AUC(0-inf) (ng·h/mL)
One number for each entry, in ng·h/mL.

The reported AUC(0-inf) of the compound CC(C)c1nc(N(C)S(C)(=O)=O)nc(-c2ccc(F)cc2)c1/C=C/[C@@H](O)C[C@@H](O)CC(=O)O was 22.8
